System: cross-linking of glycated bovine serum albumin (AGE-BSA) to the rat tail tendon collagen
PROTOCOL_TEXT: Inhibition of cross-linking of glycated bovine serum albumin (AGE-BSA) to rat tail tendon collagen coated 96-well plate (ELISA)
Assay type: biochemical
EXPERIMENTAL_CONDITIONS: 4 h, pH 7.4
Counter-ions that a name gives are not always drawn.
OBSERVED_PROPERTY: IC50 (µM)

Past entries and their recorded results:
[[record]]
compound = "C1CN=C(NN=C2CCCCC2=NNC2=NCCCN2)NC1 [dihydrobromide]"
measured_number = 6.7

[[record]]
compound = "C(=NNC1=NCCN1)c1cc2ccccc2cc1C=NNC1=NCCN1 [dihydrate]"
measured_number = 30

[[record]]
compound = "CC(C=NNc1nnc(C(C)C)n1N)=NNc1nnc(C(C)C)n1N [dihydrochloride]"
measured_number = 110


(a) C1=CC(=NNC2=NCCN2)C=CC1=NNC1=NCCN1 [dihydrobromide]
(b) C1CNC(NN=C2CCC(=NNC3=NCCN3)CC2)=N1 [dihydrate]
(c) CC(C=NNC1=NCCN1CCO)=NNC1=NCCN1CCO
With regard to IC50, arrange the entries in ascending order, please. Arrange the labels as the request states and list them.
a, b, c

(A) OCCN1CCN=C1NN=CC(=NNC1=NCCN1CCO)c1ccccc1 [dihydrate]
(B) C1CCC(=NNC2=NCCN2)C(=NNC2=NCCN2)C1
(C) N=C(N)NN=CC(=NNC(=N)N)c1ccccc1
(D) c1coc(C(=NNC2=NCCN2)C(=NNC2=NCCN2)c2ccco2)c1 [dihydrobromide]
(E) CCCC(=NNC1=NCCCN1)C(C)=NNC1=NCCCN1 [dihydrobromide]
Provide the items ranked by increasing IC50. Give me the labels in the order the question wants.
B, D, E, A, C
(B: 10 µM, D: 20 µM, E: 33 µM, A: 90 µM, C: 340 µM)

(I) OCCN1CCCN=C1NN=CC(=NNC1=NCCCN1CCO)c1ccccc1 [dihydrate]
(II) C(=NNC1=NCCN1)C(=NNC1=NCCN1)c1ccco1 [dihydrobromide dihydrate]
(III) N=C(N)NN=CC(=NNC(=N)N)c1ccco1 [dihydrate]
Place the items in sequence of falling IC50. Please list the labels according to the requested order.
III, II, I
(III: 310 µM, II: 120 µM, I: 70 µM)
